- system_name: MYC (p64);MAX (p21), in MYC:MAX (human;human, UniProt P01106-1;P61244-2 1-439;1-151, |)
- Sequence (P01106 16-454, chain 1 of 2): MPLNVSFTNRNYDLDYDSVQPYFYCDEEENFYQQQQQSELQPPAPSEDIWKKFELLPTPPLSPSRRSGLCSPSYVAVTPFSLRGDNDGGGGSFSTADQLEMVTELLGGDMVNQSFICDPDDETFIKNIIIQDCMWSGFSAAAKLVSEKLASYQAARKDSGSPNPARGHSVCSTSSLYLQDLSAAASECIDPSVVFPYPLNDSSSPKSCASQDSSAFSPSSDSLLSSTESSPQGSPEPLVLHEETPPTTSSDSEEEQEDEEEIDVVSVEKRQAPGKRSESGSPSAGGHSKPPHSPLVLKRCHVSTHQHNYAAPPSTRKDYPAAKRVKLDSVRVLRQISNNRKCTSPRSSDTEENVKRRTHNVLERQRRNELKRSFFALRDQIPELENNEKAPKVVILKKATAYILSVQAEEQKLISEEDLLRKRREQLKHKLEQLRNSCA
- Sequence (P61244 other isoform, or with tags, fused parts or gaps |, chain 2 of 2): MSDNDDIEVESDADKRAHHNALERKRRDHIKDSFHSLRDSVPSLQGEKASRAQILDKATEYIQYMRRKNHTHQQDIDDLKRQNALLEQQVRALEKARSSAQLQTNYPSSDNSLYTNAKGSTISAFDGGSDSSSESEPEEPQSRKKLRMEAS
- procedure_summary: protein-binding microarray (anti-MAX antibody); PBM: 15 mM Tris-HCl pH 7.5, 100 mM KCl, 0.075% NP40, 7.5 mM beta-mercaptoethanol, 375 ng/ul BSA, 8 ng/ul poly(dA-dT):(dA-dT), 550 ng complex, 60 min, room tempe; high values mean tight binding
- settings: protein: recombinant;recombinant; tags: 6xHis;6xHis; copies: 1;1; label: 3' end of printed strand (linker) attached to glass slide; dsDNA, one strand shown
In all, about 5,000 sequences were measured (“log2 normalized fluorescence”: median about 0.089, highest 2% from about 0.81 on). For the sample, the highest values were picked, then their nearest neighbours and some sequences at random.
endpoint_name: binding signal

biosequence: CCGGCGGGCACGTGGTCTTAATAGCTAAGATTACTATATCGACG
system_name: MYC (p64);MAX (p21), in MYC:MAX (human;human, UniProt P01106-1;P61244-2 1-439;1-151, |)
endpoint_name: binding signal
experimental_value: 0.929 log2 normalized fluorescence
//
biosequence: CCGGCTTACACATGCTATTAATAGCTAAGATTACTATATCGACG
system_name: MYC (p64);MAX (p21), in MYC:MAX (human;human, UniProt P01106-1;P61244-2 1-439;1-151, |)
endpoint_name: binding signal
experimental_value: 0.812 log2 normalized fluorescence
//
biosequence: CCGGCCGACACGTGCTTTTAATAGCTAAGATTACTATATCGACG
system_name: MYC (p64);MAX (p21), in MYC:MAX (human;human, UniProt P01106-1;P61244-2 1-439;1-151, |)
endpoint_name: binding signal
experimental_value: 0.852 log2 normalized fluorescence
//
biosequence: CCGGCTGAACGGTTGTATTAATAGCTAAGATTACTATATCGACG
system_name: MYC (p64);MAX (p21), in MYC:MAX (human;human, UniProt P01106-1;P61244-2 1-439;1-151, |)
endpoint_name: binding signal
experimental_value: 0.123 log2 normalized fluorescence
//
biosequence: CCGGCTGTCCCCTGGTATTAATAGCTAAGATTACTATATCGACG
system_name: MYC (p64);MAX (p21), in MYC:MAX (human;human, UniProt P01106-1;P61244-2 1-439;1-151, |)
endpoint_name: binding signal
experimental_value: -0.00889 log2 normalized fluorescence
//
biosequence: CCGGCTGAGCATGCGTATTAATAGCTAAGATTACTATATCGACG
system_name: MYC (p64);MAX (p21), in MYC:MAX (human;human, UniProt P01106-1;P61244-2 1-439;1-151, |)
endpoint_name: binding signal
experimental_value: 0.461 log2 normalized fluorescence
//
biosequence: CCGGCTGCCACGTGTTATTAATAGCTAAGATTACTATATCGACG
system_name: MYC (p64);MAX (p21), in MYC:MAX (human;human, UniProt P01106-1;P61244-2 1-439;1-151, |)
endpoint_name: binding signal
experimental_value: 0.969 log2 normalized fluorescence
//
biosequence: CCGGCGGGCACGTGGGATTAATAGCTAAGATTACTATATCGACG
system_name: MYC (p64);MAX (p21), in MYC:MAX (human;human, UniProt P01106-1;P61244-2 1-439;1-151, |)
endpoint_name: binding signal
experimental_value: 0.986 log2 normalized fluorescence
//
biosequence: CCGGCTGATGCGCAGTATTAATAGCTAAGATTACTATATCGACG
system_name: MYC (p64);MAX (p21), in MYC:MAX (human;human, UniProt P01106-1;P61244-2 1-439;1-151, |)
endpoint_name: binding signal
experimental_value: 0.0262 log2 normalized fluorescence
//
biosequence: CCGGCCGACACGTGCTATTAATAGCTAAGATTACTATATCGACG
system_name: MYC (p64);MAX (p21), in MYC:MAX (human;human, UniProt P01106-1;P61244-2 1-439;1-151, |)
endpoint_name: binding signal
experimental_value: 0.722 log2 normalized fluorescence
//
biosequence: CCGGCTGCCACGTGCTTTTAATAGCTAAGATTACTATATCGACG
system_name: MYC (p64);MAX (p21), in MYC:MAX (human;human, UniProt P01106-1;P61244-2 1-439;1-151, |)
endpoint_name: binding signal
experimental_value: 0.652 log2 normalized fluorescence
//
biosequence: CCGGCTTACACGTGATATTAATAGCTAAGATTACTATATCGACG
system_name: MYC (p64);MAX (p21), in MYC:MAX (human;human, UniProt P01106-1;P61244-2 1-439;1-151, |)
endpoint_name: binding signal
experimental_value: 0.75 log2 normalized fluorescence
//
biosequence: CCGGCATACACGTGGTATTAATAGCTAAGATTACTATATCGACG
system_name: MYC (p64);MAX (p21), in MYC:MAX (human;human, UniProt P01106-1;P61244-2 1-439;1-151, |)
endpoint_name: binding signal
experimental_value: 0.842 log2 normalized fluorescence
//
biosequence: CCGGCTGACAAGTGGGATTAATAGCTAAGATTACTATATCGACG
system_name: MYC (p64);MAX (p21), in MYC:MAX (human;human, UniProt P01106-1;P61244-2 1-439;1-151, |)
endpoint_name: binding signal
experimental_value: 0.302 log2 normalized fluorescence
//
biosequence: CCGGCTGCCACGTAGTGTTAATAGCTAAGATTACTATATCGACG
system_name: MYC (p64);MAX (p21), in MYC:MAX (human;human, UniProt P01106-1;P61244-2 1-439;1-151, |)
endpoint_name: binding signal
experimental_value: 0.23 log2 normalized fluorescence
//
biosequence: CCGGCTGGCACGTGGGATTAATAGCTAAGATTACTATATCGACG
system_name: MYC (p64);MAX (p21), in MYC:MAX (human;human, UniProt P01106-1;P61244-2 1-439;1-151, |)
endpoint_name: binding signal
experimental_value: 0.708 log2 normalized fluorescence
//
biosequence: CCGGCGTACACGTGGTCTTAATAGCTAAGATTACTATATCGACG
system_name: MYC (p64);MAX (p21), in MYC:MAX (human;human, UniProt P01106-1;P61244-2 1-439;1-151, |)
endpoint_name: binding signal
experimental_value: 0.89 log2 normalized fluorescence
//
biosequence: CCGGCTTACACGTGCTATTAATAGCTAAGATTACTATATCGACG
system_name: MYC (p64);MAX (p21), in MYC:MAX (human;human, UniProt P01106-1;P61244-2 1-439;1-151, |)
endpoint_name: binding signal
experimental_value: 1.02 log2 normalized fluorescence
//
biosequence: CCGGCGGAGACGATGTTTTAATAGCTAAGATTACTATATCGACG
system_name: MYC (p64);MAX (p21), in MYC:MAX (human;human, UniProt P01106-1;P61244-2 1-439;1-151, |)
endpoint_name: binding signal
experimental_value: 0.0761 log2 normalized fluorescence
//
biosequence: CCGGCATACACTTGGTATTAATAGCTAAGATTACTATATCGACG
system_name: MYC (p64);MAX (p21), in MYC:MAX (human;human, UniProt P01106-1;P61244-2 1-439;1-151, |)
endpoint_name: binding signal
experimental_value: 0.425 log2 normalized fluorescence
//
biosequence: CCGGCTGACACGTGCTTTTAATAGCTAAGATTACTATATCGACG
system_name: MYC (p64);MAX (p21), in MYC:MAX (human;human, UniProt P01106-1;P61244-2 1-439;1-151, |)
endpoint_name: binding signal
experimental_value: 0.771 log2 normalized fluorescence
//
biosequence: CCGGCTAATACGTGGTATTAATAGCTAAGATTACTATATCGACG
system_name: MYC (p64);MAX (p21), in MYC:MAX (human;human, UniProt P01106-1;P61244-2 1-439;1-151, |)
endpoint_name: binding signal
experimental_value: 0.38 log2 normalized fluorescence
